- Study target: Aβ42 (Homo sapiens, UniProt P05067)
- Sequence (P05067 672-713): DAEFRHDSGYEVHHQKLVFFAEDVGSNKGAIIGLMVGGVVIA
- Method description: Th-T (thioflavin-T) assay of Aβ42 aggregation
- Type: biochemical
- Stated conditions: Aβ42 aggregation time course, reading M117
One threshold, 3, splits the recorded Th-T fluorescence, mean of three wells values: lower ones are Satisfied, equal or higher ones are Not satisfied.

Here are 5 molecules together with their reported answers.
Molecule: C=C1CCC2C(C)(CCC=C(C)C)C(O)CCC2(C)C1Cc1c(OC)oc(C)c(C(=O)OC)c1=O (stereo not drawn)
Classification: Satisfied
--
Molecule: C=C1CC[C@H]2[C@]3(C)C[C@@H](C=C(C)C)O[C@H]3CC[C@]2(C)[C@@H]1Cc1c(O)c(C)c(C)oc1=O
Classification: Satisfied
--
Molecule: C=C1CCC2C(C)(CC(=O)C=C(C)C)C(O)CCC2(C)C1Cc1c(O)c(C)c(C)oc1=O (stereo not drawn)
Classification: Not satisfied
--
Molecule: C=C1CC[C@@H]2[C@](C)(CC[C@H]3O[C@H](C=C(C)C)C[C@@]23C)[C@@H]1Cc1c(OC)oc(CO)c(C)c1=O
Classification: Not satisfied
--
Molecule: C=C1CC[C@@H]2[C@](C)(CC[C@H]3O[C@H](C=C(C)C)C[C@@]23C)[C@@H]1Cc1c(OC)oc(CO)c(C(=O)OC)c1=O
Classification: Satisfied

Consider now this further molecule.
Ask | Identify whether the molecule C=C1CCC2C(C)(CC(=O)C=C(C)C)C(O)CCC2(C)C1Cc1c(OC)oc(CO)c(C)c1=O (stereo not drawn) records Th-T fluorescence, mean of three wells below 3.
Reply | Not satisfied

---

Each record here notes measured Th-T fluorescence, mean of three wells.
- Study target: Aβ42 (Homo sapiens)
- Method description: Th-T (thioflavin-T) assay of Aβ42 aggregation
- Type: biochemical
- Stated conditions: Aβ42 aggregation time course, reading M123
When you answer, write just the number.

Compound: C=C1CCC2C(C)(CCC=C(C)C)C(O)CCC2(C)C1Cc1c(O)c(C)c(C)oc1=O (stereo not shown) [Compound 4]
Readout label: Th-T fluorescence, mean of three wells
Quantitative result: 2.7381
//
Compound: C=C1CCC2C(C)(CC(=O)C=C(C)C)C(O)CCC2(C)C1Cc1c(OC)oc(C)c(C)c1=O (stereo not shown) [Compound 25]
Readout label: Th-T fluorescence, mean of three wells
Quantitative result: 3.546
//
Compound: C=C1CC[C@@H]2[C@](C)(CC[C@H]3O[C@H](C=C(C)C)C[C@@]23C)[C@@H]1Cc1c(O)c(C)c(C)oc1=O [Compound 10, higginsianin A]
Readout label: Th-T fluorescence, mean of three wells
Quantitative result: 3.007

Noted for CC(C)=CCC/C(C)=C/CC/C(C)=C/CC/C(C)=C/Cc1c(O)c(C)c(C)oc1=O [Compound 2] : its Th-T fluorescence, mean of three wells reads 2.95

Noted for C=C1CC[C@@H]2[C@](C)(CC[C@H]3O[C@H](C=C(C)C)C[C@@]23C)[C@@H]1Cc1c(OC)oc(CO)c(C)c1=O [Compound 20] : its Th-T fluorescence, mean of three wells reads 4.16

Noted for C=C1CCC2C(C)(CC(=O)C=C(C)C)C(O)CCC2(C)C1Cc1c(O)c(C)c(C)oc1=O (stereo not shown) [Compound 7] : its Th-T fluorescence, mean of three wells reads 3.463

Noted for C=C1CCC2C(C)(CCC=C(C)C)C(O)CCC2(C)C1Cc1c(OC)oc(CO)c(C(=O)OC)c1=O (stereo not shown) [Compound 13] : its Th-T fluorescence, mean of three wells reads 1.034
